B1: full-length mouse LIGHT, on cells (mLIGHT-IRES-EGFP) [mouse] / full-length WT mouse HVEM-mCherry, on cells [mouse] (parent complex)
chain 1: MESVVQPSVFVVDGQTDIPFRRLEQNHRRRRCGTVQVSLALVLLLGAGLATQGWFLLRLHQRLGDIVAHLPDGGKGSWEKLIQDQRSHQANPAAHLTGANASLIGIGGPLLWETRLGLAFLRGLTYHDGALVTMEPGYYYVYSKVQLSGVGCPQGLANGLPITHGLYKRTSRYPKELELLVSRRSPCGRANSSRVWWDSSFLGGVVHLEAGEEVVVRVPGNRLVRPRDGTRSYFGAFMV
chain 2: QPSCRQEEFLVGDECCPMCNPGYHVKQVCSEHTGTVCAPCPPQTYTAHANGLSKCLPCGVCDPDMGLLTWQECSSWKDTVCRCIPGYFCENQDGSHCSTCLQHTTCPPGQRVEKRGTHDQDTVCADCLTGTFSLGGTQEECLPWTNCSAFQQEVRRGTNSTDTTCSSQVVYYVVSILLPLVIVGAGIAGFLICTRRHLHTSSVAKELEPFQEQQENTIRFPVTEVGFAETEEETASN

variants of: B1; test: flow cytometry, cell–cell method; read off a plot
Some variants, each annotated with its measured ratio to parent.

Sample records with ratio to parent:
{"VARIANT": "chain 2 G34D, chain 2 V36R", "MEAS VALUE": "~1.3"}
{"VARIANT": "chain 2 G34D, chain 2 V36A", "MEAS VALUE": "~1.1"}
{"VARIANT": "chain 2 H48A, chain 2 L52A", "MEAS VALUE": "~0.28"}
{"VARIANT": "chain 2 G34R, chain 2 V36A", "MEAS VALUE": "~1.2"}
{"VARIANT": "chain 2 G34A, chain 2 V36D", "MEAS VALUE": "~1.1"}
{"VARIANT": "chain 2 H48D, chain 2 L52A", "MEAS VALUE": "~0.24"}
{"VARIANT": "chain 2 G34D, chain 2 V36D", "MEAS VALUE": "~0.87"}
{"VARIANT": "chain 2 H48D, chain 2 L52R", "MEAS VALUE": "~0.37"}
{"VARIANT": "chain 2 H48D, chain 2 L52D", "MEAS VALUE": "~0.25"}

Consider now this further variant.
Prompt: Given chain 2 H48R, chain 2 L52A , state its recorded ratio to parent.
Completion: ~0.3
